Provide the reported composite z-score of each item.
# Target under test: Dickkopf-related protein 1 (Homo sapiens) (UniProt O94907)
# Sequence (O94907 whole entry, looked up): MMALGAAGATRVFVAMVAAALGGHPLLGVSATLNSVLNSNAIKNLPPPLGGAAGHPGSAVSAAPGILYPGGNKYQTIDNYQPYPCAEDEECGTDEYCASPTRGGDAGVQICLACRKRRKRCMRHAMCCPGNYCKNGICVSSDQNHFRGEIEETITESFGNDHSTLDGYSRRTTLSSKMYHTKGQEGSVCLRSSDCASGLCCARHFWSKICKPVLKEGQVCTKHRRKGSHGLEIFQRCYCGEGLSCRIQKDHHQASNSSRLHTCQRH
# Assay method text: small molecules binding DKK1 protein – biochemical, small-molecule microarray, 635 nm fluorescence scan, primary screen (AID 1106);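 note: score merges emission near 667 nm with signal to noise over three replicate slides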
# Study conditions: higher = more signal
One number for each entry.

>>> endpoint_result("C[C@H]1C2[C@H](Cc3ccccc3)NC(=O)[C@]23C(=O)N[C@H](Cc2ccccc2)C(=O)N[C@H](Cc2ccccc2)C(=O)NC/C=C/CCC/C=C/C3[C@@H]2O[C@]12C (stereo partly drawn)")
0.54
>>> endpoint_result("CN(C)CCCC[C@@H]1NC(=O)[C@@H]2C[C@H](C(=O)NCCCCCN)[C@H](c3ccc(O)cc3)N2C1=O")
-0.722
>>> endpoint_result("CC(C)C(O)C1C=CC2C(=O)N(C)C(=O)C2N1N1CCCCC1 (stereo not drawn)")
0.13

Parameters: items (list). Returns: composite z-score for each item.
1. COC(=O)[C@@]1(Cc2ccc(OC)cc2)[C@H]2c3cc(C(=O)N(C)C)n(CCSCCO)c3C[C@H]2CN1C(=O)c1ccccc1
2. C=C(C(=O)CC[C@@H](OC(C)=O)c1ccc(OCCO)cc1)C(C)C
3. O=C1O[C@H](c2ccccc2)[C@H](c2ccccc2)N2[C@H]1[C@@H](C(=O)Nc1nc3ccccc3s1)[C@]1(C(=O)Nc3ccc(C#CC4=CCCCC4)cc31)[C@H]2c1ccc(OCCO)cc1
4. COCCOC(=O)N1C(=O)[C@@]2(c3cc(C#CC4=CCCCC4)ccc31)[C@H](c1ccc(OCCO)cc1)N1[C@H](c3ccccc3)[C@H](c3ccccc3)OC(=O)[C@H]1[C@@H]2C(=O)Nc1nc2ccccc2s1
5. C#C[C@H](O[Si](C#CCCCCCC)(C(C)C)C(C)C)c1ccccc1
6. COCCCNC(=O)[C@@]1(Cc2ccccc2I)c2ccccc2C(=O)N(Cc2ccccc2)[C@H]1c1ccc(CO)cc1
7. O=C1c2ccccc2[C@@]2(Cc3ccccc3N(Cc3ccccc3)C2=O)[C@H](c2ccc(CO)cc2)N1Cc1ccccc1C(F)(F)F

**Result**
1. -0.796
2. -0.207
3. 0.779
4. 0.521
5. -0.169
6. -1.41
7. -1.38

---

Provide the reported composite z-score of each item.
# Target under test: Albumin (Bos taurus)
# Assay method text: compounds binding labelled BSA control protein – biochemical, small-molecule microarray, Alexa647 label, 635/667 nm fluorescence, artefact control for SMM control protein annotation, profiling panel (AID 1118);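 note: score merges 667 nm emission intensity and signal-to-noise per printed compound spot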
# Study conditions: BSA-A647 binding, fluorescence 635 nm, higher = more signal
Numbers only.

>>> endpoint_result("COCCOC(=O)N1C(=O)[C@@]2(c3cc(C#CC4(O)CCCCCC4)ccc31)[C@H](c1ccc(O)cc1)N1[C@H](c3ccccc3)[C@H](c3ccccc3)OC(=O)[C@H]1[C@@H]2C(=O)N1CCc2cc(OC)c(OC)cc2C1")
-0.189
>>> endpoint_result("C=C(CCCC)C(=O)CC[C@H](OC(C)=O)c1ccc(CO)o1")
-0.471
>>> endpoint_result("CN1C(=O)C2C=CC(C(O)C(c3ccccc3)c3ccccc3)N(Nc3ccccc3)C2C1=O (configuration not stated)")
0.959

Parameters: items (list). Returns: composite z-score for each item.
1. CN(C)CCCC[C@@H]1NC(=O)[C@H]2C[C@@H](C(=O)NCCCCCNC(=O)CS)[C@@H](c3ccc(O)cc3)N2C1=O
2. C=CCOC(=O)[C@@H]1[C@H]2C(=O)O[C@H](c3ccccc3)[C@H](c3ccccc3)N2[C@H](c2ccc(OCCOC(=O)[C@H]3C[C@H]4C(=O)N[C@@H](Cc5ccccc5)C(=O)N4[C@H]3c3ccc(O)cc3)cc2)[C@@]12C(=O)Nc1ccc(I)cc12
3. C=CCCN(CC#C[C@H]1Oc2ccccc2S(=O)(=O)N2CCC[C@@H]12)S(=O)(=O)c1ccc(C)cc1
4. O=C1c2ccccc2[C@](Cc2ccccc2I)(C(=O)O)[C@H](c2ccc(CO)cc2)N1Cc1ccccc1C(F)(F)F

**Result**
[0.74, -0.893, 0.0985, 0.449]
